Target: Piezo-type mechanosensitive ion channel component 1 (Homo sapiens, UniProt Q92508)
Sequence (Q92508 whole entry): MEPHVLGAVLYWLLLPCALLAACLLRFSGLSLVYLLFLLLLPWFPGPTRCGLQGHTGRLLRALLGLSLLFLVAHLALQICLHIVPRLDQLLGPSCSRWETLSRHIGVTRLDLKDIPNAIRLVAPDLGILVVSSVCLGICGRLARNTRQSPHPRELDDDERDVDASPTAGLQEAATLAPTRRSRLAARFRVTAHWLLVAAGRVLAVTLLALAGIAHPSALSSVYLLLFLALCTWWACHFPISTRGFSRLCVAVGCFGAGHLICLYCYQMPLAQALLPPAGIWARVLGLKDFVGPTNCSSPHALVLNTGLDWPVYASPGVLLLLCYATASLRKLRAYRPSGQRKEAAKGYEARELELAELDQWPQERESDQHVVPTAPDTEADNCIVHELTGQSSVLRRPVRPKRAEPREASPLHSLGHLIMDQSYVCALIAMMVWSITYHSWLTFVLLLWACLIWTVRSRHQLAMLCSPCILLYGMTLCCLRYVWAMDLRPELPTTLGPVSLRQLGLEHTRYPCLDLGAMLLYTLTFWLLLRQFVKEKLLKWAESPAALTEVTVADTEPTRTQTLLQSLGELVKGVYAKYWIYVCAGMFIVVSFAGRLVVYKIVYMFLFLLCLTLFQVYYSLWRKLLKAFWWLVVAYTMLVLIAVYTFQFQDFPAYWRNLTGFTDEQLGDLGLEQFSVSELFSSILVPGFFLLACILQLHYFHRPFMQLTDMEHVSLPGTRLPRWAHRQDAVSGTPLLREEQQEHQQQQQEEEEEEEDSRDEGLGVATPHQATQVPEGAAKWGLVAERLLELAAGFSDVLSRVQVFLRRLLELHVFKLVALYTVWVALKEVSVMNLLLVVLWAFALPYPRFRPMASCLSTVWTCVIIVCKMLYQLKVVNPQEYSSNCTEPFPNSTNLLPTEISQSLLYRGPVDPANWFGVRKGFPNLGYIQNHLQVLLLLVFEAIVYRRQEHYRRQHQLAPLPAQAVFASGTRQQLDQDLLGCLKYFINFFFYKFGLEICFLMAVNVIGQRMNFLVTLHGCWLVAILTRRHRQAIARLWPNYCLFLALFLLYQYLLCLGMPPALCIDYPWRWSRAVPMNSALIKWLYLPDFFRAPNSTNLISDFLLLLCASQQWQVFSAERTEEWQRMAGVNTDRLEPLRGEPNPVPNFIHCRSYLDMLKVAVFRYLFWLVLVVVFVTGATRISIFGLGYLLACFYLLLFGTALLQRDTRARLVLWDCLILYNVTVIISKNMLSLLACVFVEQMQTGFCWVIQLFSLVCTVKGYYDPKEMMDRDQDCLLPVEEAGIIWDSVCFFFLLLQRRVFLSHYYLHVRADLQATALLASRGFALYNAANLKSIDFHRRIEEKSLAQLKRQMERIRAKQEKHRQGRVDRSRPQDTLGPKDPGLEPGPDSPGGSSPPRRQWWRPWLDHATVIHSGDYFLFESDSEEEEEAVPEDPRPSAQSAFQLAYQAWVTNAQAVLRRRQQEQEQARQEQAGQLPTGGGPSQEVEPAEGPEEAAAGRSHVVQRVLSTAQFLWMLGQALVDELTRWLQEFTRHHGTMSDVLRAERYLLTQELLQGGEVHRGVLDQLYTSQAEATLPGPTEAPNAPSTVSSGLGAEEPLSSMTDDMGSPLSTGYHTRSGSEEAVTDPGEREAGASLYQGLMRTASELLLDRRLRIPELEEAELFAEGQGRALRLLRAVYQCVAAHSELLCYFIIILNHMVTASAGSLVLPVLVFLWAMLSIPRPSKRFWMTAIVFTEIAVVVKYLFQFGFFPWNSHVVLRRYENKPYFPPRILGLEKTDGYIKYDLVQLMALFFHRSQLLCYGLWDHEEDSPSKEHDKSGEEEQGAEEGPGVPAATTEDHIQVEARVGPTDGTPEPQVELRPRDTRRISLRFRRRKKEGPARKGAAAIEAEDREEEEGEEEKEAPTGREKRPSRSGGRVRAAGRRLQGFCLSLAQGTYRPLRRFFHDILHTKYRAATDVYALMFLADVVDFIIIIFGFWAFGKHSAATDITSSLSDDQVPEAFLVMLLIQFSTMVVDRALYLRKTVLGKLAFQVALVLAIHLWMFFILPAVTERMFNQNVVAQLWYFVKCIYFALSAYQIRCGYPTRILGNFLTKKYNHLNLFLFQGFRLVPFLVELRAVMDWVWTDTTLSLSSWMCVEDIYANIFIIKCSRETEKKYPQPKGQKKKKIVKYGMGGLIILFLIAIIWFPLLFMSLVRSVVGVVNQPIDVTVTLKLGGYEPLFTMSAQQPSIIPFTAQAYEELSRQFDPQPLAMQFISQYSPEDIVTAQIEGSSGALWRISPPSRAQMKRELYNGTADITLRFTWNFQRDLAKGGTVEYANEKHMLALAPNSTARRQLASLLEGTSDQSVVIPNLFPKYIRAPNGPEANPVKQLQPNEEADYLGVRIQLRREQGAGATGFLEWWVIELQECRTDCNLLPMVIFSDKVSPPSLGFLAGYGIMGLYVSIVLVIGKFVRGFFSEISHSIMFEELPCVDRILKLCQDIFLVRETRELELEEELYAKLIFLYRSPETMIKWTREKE
Assay: Agonist activity at human PIEZO1 overexpressing HEK293-A cells co-expressing mCherry-piezo1 assessed as fold change in calcium influx at 10 uM by fluo-3 based real-time flow cytometric analysis
Format: cell-based
List of fold change (FC) values.

1. Clc1ccccc1CNc1nnc(-c2cnccn2)o1; < 1.2

## Task I'd like to know its fold change (FC). The molecule in question is "Clc1cccc(Cl)c1CSc1nnc(-c2ccc[nH]2)o1"
## Result < 1.2

## Task I'd like to know its fold change (FC). The molecule in question is "Clc1ccc(Cl)c(CSc2nnc(-c3cnccn3)o2)c1"
## Result > 1.2

## Task I'd like to know its fold change (FC). The molecule in question is "Clc1ccccc1CSc1nnc(-c2ccc[nH]2)o1"
## Result < 1.2

## Task I'd like to know its fold change (FC). The molecule in question is "FC(F)(F)c1ccc(Br)c(CSc2nnc(-c3cnccn3)o2)c1"
## Result > 1.2

## Task I'd like to know its fold change (FC). The molecule in question is "Clc1cccc(Cl)c1CSc1nnc(-c2cnccn2)o1"
## Result > 1.2

## Task I'd like to know its fold change (FC). The molecule in question is "FC(F)(F)c1cccc(Br)c1CSc1nnc(-c2cnccn2)o1"
## Result > 1.2

## Task I'd like to know its fold change (FC). The molecule in question is "Clc1cccc(Cl)c1CNc1nnc(-c2cnccn2)o1"
## Result < 1.2

## Task I'd like to know its fold change (FC). The molecule in question is "FC(F)(F)c1ccccc1CSc1nnc(-c2cnccn2)o1"
## Result > 1.2

## Task I'd like to know its fold change (FC). The molecule in question is "FC(F)(F)c1ccc(Cl)c(CSc2nnc(-c3cnccn3)o2)c1"
## Result > 1.2

## Task I'd like to know its fold change (FC). The molecule in question is "Clc1cccc(Cl)c1CSc1nnc(-c2cnccn2)s1"
## Result > 1.2

## Task I'd like to know its fold change (FC). The molecule in question is "O=c1oc(-c2cnccn2)nn1Cc1c(Cl)cccc1Cl"
## Result < 1.2

## Task I'd like to know its fold change (FC). The molecule in question is "O=c1oc(-c2cnccn2)nn1Cc1ccccc1Cl"
## Result < 1.2

====

List of fold change (FC) values.
Biological target: UniProtKB Q92508
Experiment: Agonist activity at human PIEZO1 overexpressing HEK293-A cells co-expressing mCherry-piezo1 assessed as fold change in calcium influx at 1 uM by fluo-3 based real-time flow cytometric analysis
Type: cell-based

1) Clc1ccccc1CSc1nnc(-c2ccc[nH]2)o1; < 1.2
2) Clc1ccccc1CNc1nnc(-c2cnccn2)o1; < 1.2
3) Fc1cccc(Cl)c1CSc1nnc(-c2cnccn2)o1; < 1.2

## Task I'd like to know its fold change (FC). The molecule in question is "Clc1cccc(Cl)c1CSc1nnc(-c2cnccn2)o1"
## Result > 1.2

## Task I'd like to know its fold change (FC). The molecule in question is "Brc1cccc(Br)c1CSc1nnc(-c2cnccn2)o1"
## Result > 1.2

## Task I'd like to know its fold change (FC). The molecule in question is "Clc1ccc(Cl)c(CSc2nnc(-c3cnccn3)o2)c1"
## Result < 1.2

## Task I'd like to know its fold change (FC). The molecule in question is "FC(F)(F)c1cccc(Cl)c1CSc1nnc(-c2cnccn2)o1"
## Result > 1.2

## Task I'd like to know its fold change (FC). The molecule in question is "FC(F)(F)c1ccccc1CSc1nnc(-c2cnccn2)o1"
## Result < 1.2

## Task I'd like to know its fold change (FC). The molecule in question is "Clc1cccc(Br)c1CSc1nnc(-c2cnccn2)o1"
## Result > 1.2

## Task I'd like to know its fold change (FC). The molecule in question is "Brc1ccc(Br)c(CSc2nnc(-c3cnccn3)o2)c1"
## Result < 1.2

## Task I'd like to know its fold change (FC). The molecule in question is "O=c1oc(-c2cnccn2)nn1Cc1ccccc1Cl"
## Result < 1.2
